Molecular target: UniProtKB Q9NYK1
Sequence (Q9NYK1 27-1049): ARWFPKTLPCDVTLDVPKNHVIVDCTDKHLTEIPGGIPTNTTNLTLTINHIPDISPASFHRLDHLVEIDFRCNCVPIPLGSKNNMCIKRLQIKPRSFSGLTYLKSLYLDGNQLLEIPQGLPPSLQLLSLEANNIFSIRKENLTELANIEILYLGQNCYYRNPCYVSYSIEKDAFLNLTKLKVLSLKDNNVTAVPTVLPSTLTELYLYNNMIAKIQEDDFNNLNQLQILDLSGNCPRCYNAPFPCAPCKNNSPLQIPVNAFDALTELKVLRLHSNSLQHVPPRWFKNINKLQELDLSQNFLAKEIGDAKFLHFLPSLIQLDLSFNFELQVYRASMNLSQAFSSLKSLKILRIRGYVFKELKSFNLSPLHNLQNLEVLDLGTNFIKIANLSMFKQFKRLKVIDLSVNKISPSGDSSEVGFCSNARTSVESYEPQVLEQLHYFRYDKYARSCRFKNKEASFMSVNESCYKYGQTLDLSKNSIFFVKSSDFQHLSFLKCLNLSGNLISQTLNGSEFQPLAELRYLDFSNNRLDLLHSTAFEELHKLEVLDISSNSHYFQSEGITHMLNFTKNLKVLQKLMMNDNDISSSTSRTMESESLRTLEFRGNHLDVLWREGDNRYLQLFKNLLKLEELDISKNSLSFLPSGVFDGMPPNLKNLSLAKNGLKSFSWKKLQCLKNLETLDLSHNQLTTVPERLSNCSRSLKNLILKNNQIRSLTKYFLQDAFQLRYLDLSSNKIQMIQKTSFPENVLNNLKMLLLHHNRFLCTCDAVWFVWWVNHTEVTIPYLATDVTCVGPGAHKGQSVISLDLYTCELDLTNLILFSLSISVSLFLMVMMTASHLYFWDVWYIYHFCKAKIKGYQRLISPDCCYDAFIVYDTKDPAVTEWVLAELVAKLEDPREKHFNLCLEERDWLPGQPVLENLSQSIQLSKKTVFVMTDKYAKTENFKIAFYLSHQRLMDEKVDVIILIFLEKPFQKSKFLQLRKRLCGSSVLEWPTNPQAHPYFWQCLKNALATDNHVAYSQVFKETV
Experiment: Human TLR7 Reporter Assay
Details: HEK-Blue hTLR7 cells, 16 hours, normalized to CL097 (6 μM) and DMSO

[
  {
    "COMPOUND": "CCCC(C)Nc1nc(N)nc2cn(Cc3c(OC)cccc3OC)nc12 (centres unmarked) [Compound 91]",
    "TARGET_SYSTEM": "UniProtKB Q9NYK1",
    "EC50 [nM]": 35.8
  },
  {
    "COMPOUND": "CCCCNc1nc(N)nc2cn(Cc3ccc(C4CCNCC4)nc3OC)nc12 [Compound 138]",
    "TARGET_SYSTEM": "UniProtKB Q9NYK1",
    "EC50 [nM]": 191
  },
  {
    "COMPOUND": "CCCCNc1nc(N)nc2cn(Cc3cc(C)nn3C)nc12 [Compound 173]",
    "TARGET_SYSTEM": "UniProtKB Q9NYK1",
    "EC50 [nM]": 246
  },
  {
    "COMPOUND": "CCCCNc1nc(N)nc2cn(Cc3c(OC)cc(CNC(=O)C4CCC(CN5C(=O)CC(SC[C@H](N)C(=O)O)C5=O)CC4)cc3OC)nc12 (some centres unmarked) [Compound 92]",
    "TARGET_SYSTEM": "UniProtKB Q9NYK1",
    "EC50 [nM]": 2260
  },
  {
    "COMPOUND": "CCCCNc1nc(N)nc2cn(Cc3ccc(CN4CCNCC4)cc3OC)nc12 [Compound 61]",
    "TARGET_SYSTEM": "UniProtKB Q9NYK1",
    "EC50 [nM]": 344
  },
  {
    "COMPOUND": "CCC[C@@H](CO)Nc1nc(N)nc2cn(Cc3ncccc3OC)nc12 [Compound 133]",
    "TARGET_SYSTEM": "UniProtKB Q9NYK1",
    "EC50 [nM]": 114
  },
  {
    "COMPOUND": "CCCCNc1nc(N)nc2cn(Cc3ccc(C(C)N(C)CCC)cc3OC)nc12 (centres unmarked) [Compound 240]",
    "TARGET_SYSTEM": "UniProtKB Q9NYK1",
    "EC50 [nM]": 50.7
  },
  {
    "COMPOUND": "CCCCNc1nc(N)nc2cn(Cc3c(OC)cc(CN4CCNCC4)cc3OC)nc12 [Compound 62]",
    "TARGET_SYSTEM": "UniProtKB Q9NYK1",
    "EC50 [nM]": 840
  }
]

* * *

Biological target: hTLR8 (Homo sapiens)
Sequence (Q9NR97 27-1041): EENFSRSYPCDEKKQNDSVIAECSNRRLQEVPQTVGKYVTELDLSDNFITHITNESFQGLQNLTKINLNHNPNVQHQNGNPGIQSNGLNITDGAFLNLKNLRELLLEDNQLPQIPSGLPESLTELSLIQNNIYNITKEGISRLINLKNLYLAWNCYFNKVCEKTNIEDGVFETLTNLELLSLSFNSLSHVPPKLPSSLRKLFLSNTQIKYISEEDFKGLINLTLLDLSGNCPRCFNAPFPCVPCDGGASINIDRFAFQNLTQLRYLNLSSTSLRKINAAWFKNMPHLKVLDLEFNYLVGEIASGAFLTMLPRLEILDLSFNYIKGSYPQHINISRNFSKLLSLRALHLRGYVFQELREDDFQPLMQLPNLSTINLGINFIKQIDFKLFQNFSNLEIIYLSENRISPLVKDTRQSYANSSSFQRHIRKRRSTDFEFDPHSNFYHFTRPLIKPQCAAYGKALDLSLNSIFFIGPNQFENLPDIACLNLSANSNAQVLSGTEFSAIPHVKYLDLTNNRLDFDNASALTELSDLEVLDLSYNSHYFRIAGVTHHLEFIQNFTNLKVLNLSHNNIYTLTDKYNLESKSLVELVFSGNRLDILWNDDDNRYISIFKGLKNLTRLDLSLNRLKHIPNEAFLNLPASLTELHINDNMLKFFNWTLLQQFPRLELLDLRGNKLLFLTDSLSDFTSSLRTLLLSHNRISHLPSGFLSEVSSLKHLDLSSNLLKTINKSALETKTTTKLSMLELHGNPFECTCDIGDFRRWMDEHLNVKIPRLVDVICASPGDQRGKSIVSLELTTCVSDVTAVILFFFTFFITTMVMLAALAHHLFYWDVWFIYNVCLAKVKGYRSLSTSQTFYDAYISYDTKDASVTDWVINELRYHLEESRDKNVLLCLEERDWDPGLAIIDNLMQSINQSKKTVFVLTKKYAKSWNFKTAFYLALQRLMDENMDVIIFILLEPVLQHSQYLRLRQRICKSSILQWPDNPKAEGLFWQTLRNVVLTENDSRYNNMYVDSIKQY
Test: Human TLR8 Reporter Assay
Conditions: HEK-Blue hTLR8 cells, 16 hours, normalized to tl8-506 (1 μM) and DMSO
pEC50: −log10 of the molar value.
ASSAY_METRIC: pEC50

[
  {
    "COMPOUND": "CCCCNc1nc(N)nc2cn(Cc3ccc(C4CCNC4)cc3)nc12 (stereo not drawn) [Compound 196]",
    "ASSAY_METRIC": "pEC50",
    "RELATION_SYMBOL": "=",
    "VAL": 6.12
  },
  {
    "COMPOUND": "CCCCNc1nc(N)nc2cn(Cc3ccc(CN4CCNCC4)cc3OC)nc12 [Compound 131]",
    "ASSAY_METRIC": "pEC50",
    "RELATION_SYMBOL": "=",
    "VAL": 5.90
  },
  {
    "COMPOUND": "CCCCNc1nc(N)nc2cn(Cc3ccc(C4CCC(=O)N4)cc3)nc12 (stereo not drawn) [Compound 203]",
    "ASSAY_METRIC": "pEC50",
    "RELATION_SYMBOL": "=",
    "VAL": 4.94
  },
  {
    "COMPOUND": "CCCC(Nc1nc(N)nc2cn(Cc3c(OC)cccc3OC)nc12)C(F)F (stereo not drawn) [Compound 135]",
    "ASSAY_METRIC": "pEC50",
    "RELATION_SYMBOL": "<",
    "VAL": 5.00
  },
  {
    "COMPOUND": "CCCCNc1nc(N)nc2cn(Cc3c(OC)cc(C(C)N)cc3OC)nc12 (stereo not drawn) [Compound 214]",
    "ASSAY_METRIC": "pEC50",
    "RELATION_SYMBOL": "=",
    "VAL": 6.63
  },
  {
    "COMPOUND": "CCCCNc1nc(N)nc2cn(Cc3ccc(C(C)NCCC)cc3OC)nc12 (stereo not drawn) [Compound 217]",
    "ASSAY_METRIC": "pEC50",
    "RELATION_SYMBOL": "=",
    "VAL": 7.04
  },
  {
    "COMPOUND": "CCCCNc1nc(N)nc2cn(Cc3ncc(NCCCN)cc3OC)nc12 [Compound 129]",
    "ASSAY_METRIC": "pEC50",
    "RELATION_SYMBOL": "=",
    "VAL": 5.87
  },
  {
    "COMPOUND": "CCCCNc1nc(N)nc2cnn(Cc3c(OC)cc(CN4CCNCC4)cc3OC)c12 [Compound 63]",
    "ASSAY_METRIC": "pEC50",
    "RELATION_SYMBOL": "=",
    "VAL": 5.62
  },
  {
    "COMPOUND": "CCCCNc1nc(N)nc2cn(Cc3cnccc3OC)nc12 [Compound 101]",
    "ASSAY_METRIC": "pEC50",
    "RELATION_SYMBOL": "=",
    "VAL": 5.90
  },
  {
    "COMPOUND": "CCCCNc1nc(N)nc2cn(Cc3ccc(C(N)CN)cc3OC)nc12 (stereo not drawn) [Compound 227]",
    "ASSAY_METRIC": "pEC50",
    "RELATION_SYMBOL": "=",
    "VAL": 4.97
  },
  {
    "COMPOUND": "CCCNc1nc(N)nc2cn(Cc3c(OC)cccc3OC)nc12 [Compound 26]",
    "ASSAY_METRIC": "pEC50",
    "RELATION_SYMBOL": "=",
    "VAL": 5.72
  },
  {
    "COMPOUND": "CCCNC(C)c1ccc(Cn2cc3nc(N)nc(N[C@H](CO)CCC)c3n2)c(OC)c1 (stereo partly drawn) [Compound 231]",
    "ASSAY_METRIC": "pEC50",
    "RELATION_SYMBOL": "=",
    "VAL": 7.31
  },
  {
    "COMPOUND": "COc1cccc(OC)c1Cn1cc2nc(N)nc(NCCC(C)O)c2n1 (stereo not drawn) [Compound 51]",
    "ASSAY_METRIC": "pEC50",
    "RELATION_SYMBOL": "<",
    "VAL": 4.52
  },
  {
    "COMPOUND": "CCCCNc1nc(N)nc2cn(Cc3ccc(C(C)N(C)C)cc3OC)nc12 (stereo not drawn) [Compound 219]",
    "ASSAY_METRIC": "pEC50",
    "RELATION_SYMBOL": "=",
    "VAL": 6.56
  },
  {
    "COMPOUND": "CCCCNc1nc(N)nc2cn(Cc3c(OC)cc(NCCN)cc3OC)nc12 [Compound 114]",
    "ASSAY_METRIC": "pEC50",
    "RELATION_SYMBOL": "=",
    "VAL": 5.35
  },
  {
    "COMPOUND": "CCCCNc1nc(N)nc2cn(Cc3c(OC)ccc(CN)c3OC)nc12 [Compound 76]",
    "ASSAY_METRIC": "pEC50",
    "RELATION_SYMBOL": "=",
    "VAL": 6.14
  },
  {
    "COMPOUND": "CCC[C@@H](C)Nc1nc(N)nc2cn(Cc3c(OC)cc(CNC)cc3OC)nc12 [Compound 189]",
    "ASSAY_METRIC": "pEC50",
    "RELATION_SYMBOL": "=",
    "VAL": 6.54
  },
  {
    "COMPOUND": "CCCCNc1nc(N)nc2cn(Cc3ccc(NCCCN)cn3)nc12 [Compound 144]",
    "ASSAY_METRIC": "pEC50",
    "RELATION_SYMBOL": "=",
    "VAL": 5.42
  }
]
